- test description: Circular dichroism, α-helical content of peptide alone
- Format: physicochemical
- measurement setup: CD, 50% TFE in 10 mM H3PO4, 20 °C
Square brackets hold non-standard residues; d marks the D form. Ends that are not written are not given here. Dab = NCC[C@H](N)C(=O)O; Dap = NC[C@H](N)C(=O)O
Classify: class 1 when helicity (second value) is strictly less than 50%; class 0 when helicity (second value) is not.

A selection of reference data follows.
LKKLL[Dab]LLKKLLKLAG [2b]
class 0
LKKLLKLLKKLL[Dap]LAG [2i]
class 0

Continue with the next substance.
Query :: Criterion: helicity (second value) strictly below 50%. Is it met by LKKLLKLLKKLL[Dab]LAG [2h] ?
Result :: class 1
